Where do the numbers come from? From patent US10106534B2.

Measured pIC50 accompanies every entry in the list below.
TARGET: JMJD3 (Homo sapiens, UniProt O15054)
ASSAY OVERVIEW: In vitro enzyme inhibition assay for JMJD3 activity (TR-FRET)
Type: biochemical
pIC50: −log10 of the molar value.

See these solved cases before continuing.
1) CN(c1ccccc1)c1ccc2c(c1)OCC[C@H]2CNc1cnccc1C(=O)O : 6.00 to 7.00
2) Cc1ccc(N(C)c2ccc3c(c2)CCC[C@H]3CNc2cnccc2C(=O)O)nc1 : 5.00 to 6.00
3) CN(c1ccc(OC(F)F)cc1)c1ccc2c(c1)OCC[C@H]2CNc1cnccc1C(=O)O : 5.00 to 6.00
4) CN(c1ccccc1)c1ccc2c(c1)CCC[C@H]2CNc1nnccc1C(=O)O : 5.00 to 6.00
5) CN(c1ccc(N2CCC2)cc1)c1ccc2c(c1)OCC[C@H]2CNc1cnccc1C(=O)O : 5.00 to 6.00

pIC50 of `CCN(c1ccccc1)c1ccc2c(c1)OCC[C@H]2CNc1cnccc1C(=O)O` on JMJD3 (Homo sapiens, UniProt O15054)?
5.00 to 6.00

Further, for `CN(c1ccc2c(c1)OCC[C@H]2CNc1cnccc1C(=O)O)c1ccc(C2CC2)cn1` ?
5.00 to 6.00

Please answer likewise for `Cc1cccc(N(C)c2ccc3c(c2)CCC[C@H]3CNc2cnccc2C(=O)O)n1`
5.00 to 6.00

Please do the same for O=C(O)c1ccncc1NCC1CCOc2cc(-c3ccoc3)ccc21 (stereo not shown) as well.
> 7.00

----------
Quick record: pIC50, JMJD2C (Homo sapiens (Human)).
pIC50: −log10 of the molar value.

Solved cases below.
1. COc1ccc(Cl)c(-c2ccc3c(c2)OCC[C@H]3CNc2cnccc2C(=O)O)c1 : 6.00 to 7.00
2. Cc1ccccc1-c1ccc2c(c1)OCC[C@H]2CNc1cnccc1C(=O)O : 6.00 to 7.00
3. O=C(O)c1ccncc1NCC1CCCc2cc(N3CCc4ccccc43)ccc21 (stereo not shown) : 5.00 to 6.00

Requested field: pIC50. Item: `CN(c1ccc2c(c1)CCC[C@H]2CNc1cnccc1C(=O)O)c1ccc2ccoc2c1`
6.00 to 7.00

Input `O=C(O)c1ccncc1NC[C@@H]1CCCc2cc(Sc3ccc(F)cc3)ccc21`
6.00 to 7.00

Continue with `Cc1ccccc1Oc1ccc2c(c1)CCC[C@H]2CNc1cnccc1C(=O)O`
6.00 to 7.00

// repeat for `Cc1ccc(N(C)c2ccc3c(c2)CCC[C@H]3CNc2cnccc2C(=O)O)nc1` and report
6.00 to 7.00

Proceed to `O=C(O)c1ccncc1NC[C@H]1CCCc2cc(S(=O)(=O)c3ccccc3)ccc21`
6.00 to 7.00

What do we get for `O=C(O)c1ccncc1NC[C@@H]1CCCc2cc(Oc3ccccc3Cl)ccc21` ?
6.00 to 7.00

Same question for `CN(c1ccc(N2CCC2)cc1)c1ccc2c(c1)CCC[C@H]2CNc1cnccc1C(=O)O` please.
6.00 to 7.00

Another molecule to check: COc1cc2c(c(OC)c1)C(CNc1cnccc1C(=O)O)CCC2 (stereo not shown)
6.00 to 7.00

Next record, please: O=C(O)c1ccncc1NCC1CCOc2cc(-c3ccc(C(F)(F)F)cc3)ccc21 (stereo not shown)
5.00 to 6.00

Another molecule to check: `COc1ccc(N(C)c2ccc3c(c2)OCC[C@H]3CNc2cnccc2C(=O)O)cc1`
≥ 7.00

Same lookup for `COc1cc2c(cc1F)[C@H](CNc1cnccc1C(=O)O)CCC2` , please.
6.00 to 7.00

What do you have for `CN(c1cccc(Cl)c1)c1ccc2c(c1)OCC[C@H]2CNc1cnccc1C(=O)O` ?
5.00 to 6.00

Try this molecule too: `CN(c1ccccc1)c1ccc2c(c1)CCC[C@H]2CNc1nnccc1C(=O)O`
6.00 to 7.00

Lookup `CN(c1ccc2c(c1)CCC[C@H]2CNc1cnccc1C(=O)O)c1ccn(C)n1`
6.00 to 7.00

Repeat for the following molecule: `COCCN(c1ccc(C2CC2)cc1)c1ccc2c(c1)CCC[C@H]2CNc1cnccc1C(=O)O`
5.00 to 6.00

And for `CN(c1cc(F)cc(F)c1)c1ccc2c(c1)OCC[C@H]2CNc1cnccc1C(=O)O` ?
6.00 to 7.00

Also `CN(c1ccc(N2CCOCC2)cc1)c1ccc2c(c1)CCC[C@H]2CNc1cnccc1C(=O)O` , if possible.
6.00 to 7.00

Record: `CN(c1ccc(C2CC2)cc1)c1ccc2c(c1)OCC[C@H]2CNc1cnccc1C(=O)O`
6.00 to 7.00

Can you handle `CN(c1ccc(N2CCC2)cc1)c1ccc2c(c1)OCC[C@H]2CNc1cnccc1C(=O)O` next?
6.00 to 7.00

Also `CN(c1ccc(-n2cccn2)cc1)c1ccc2c(c1)CCC[C@H]2CNc1cnccc1C(=O)O` ?
6.00 to 7.00

Please give the result for `O=C(O)c1ccncc1NC[C@@H]1CCCc2cc(N3CCCC3)ccc21` too.
6.00 to 7.00

// query: `CN(c1ccc(C#N)cc1)c1ccc2c(c1)CCC[C@H]2CNc1cnccc1C(=O)O`
6.00 to 7.00

----------
// values below are reported IC50
TARGET: JMJD3 (Homo sapiens)

If you can, please state the reported IC50 value of `CN(c1ccc(F)cc1)c1ccc2c(c1)OCC[C@H]2CNc1cnccc1C(=O)O` .
1 to 10 µM

Param item: `Cc1ccc(-c2ccc3c(c2)OCC[C@@H]3CNc2cnccc2C(=O)O)cc1`
0.1 to 1 µM

Further, for `CN(c1ccc(N2CCOCC2)cc1)c1ccc2c(c1)CCC[C@H]2CNc1cnccc1C(=O)O` ?
1 to 10 µM

Another compound to check: `O=C(O)c1ccncc1NC[C@@H]1CCOc2cc(-c3ccccc3Cl)ccc21`
1 to 10 µM

----------
Test system: KYSE-150 esophageal carcinoma cell line
ASSAY OVERVIEW: In vitro cell-based assay: cellular proliferation via BrdU incorporation (ELISA)
Design: species or system human
RUN PARAMETERS: Homo sapiens, KYSE-150, 168 hours compound incubation
pIC50: −log10 of the molar value.
Quick list: pIC50 per entry.

Here's what some known entries look like.
1) COc1cc(N(C)c2ccc3c(c2)OCC[C@H]3CNc2cnccc2C(=O)O)ccc1F : 5.00 to 6.00
2) O=C(O)c1ccncc1NC[C@@H]1CCOc2cc(-c3cc(F)ccc3Cl)ccc21 : 6.00 to 7.00
3) CN(c1ccc(-n2cccn2)cc1)c1ccc2c(c1)CCC[C@H]2CNc1cnccc1C(=O)O : ≥ 7.00
4) CN(c1cc(F)cc(F)c1)c1ccc2c(c1)OCC[C@H]2CNc1cnccc1C(=O)O : 6.00 to 7.00
5) Cc1ccccc1N(C)c1ccc2c(c1)OCC[C@H]2CNc1cnccc1C(=O)O : 6.00 to 7.00
6) CN(c1ccccc1)c1ccc2c(c1)OCC[C@H]2CNc1cnccc1C(=O)O : ≥ 7.00
7) Cc1ccc(S(=O)(=O)c2ccc3c(c2)CCC[C@H]3CNc2cnccc2C(=O)O)cc1 : < 5.00
8) O=C(O)c1ccncc1NCC1CCOc2cc(N3CCCc4ccccc43)ccc21 (centres unmarked) : 6.00 to 7.00

GET /values?readout=pIC50&system=KYSE-150 esophageal carcinoma cell line&item= `CC(C)c1ccc(N(C)c2ccc3c(c2)OCC[C@H]3CNc2cnccc2C(=O)O)nc1`
≥ 7.00

Would you mind doing `CN(c1ccc(N2CCCC2)cc1)c1ccc2c(c1)CCC[C@H]2CNc1cnccc1C(=O)O` as well?
≥ 7.00

Please answer likewise for `O=C(O)c1ccncc1NC[C@@H]1CCOc2cc(Sc3cccc(F)c3)ccc21`
6.00 to 7.00

----------
System: KYSE-150 esophageal carcinoma cell line
ASSAY OVERVIEW: In vitro cell-based assay: cellular proliferation via BrdU incorporation (ELISA)
Design: species or system human
RUN PARAMETERS: Homo sapiens, KYSE-150, 168 hours compound incubation
pIC50: −log10 of the molar value.
MEASURE NAME: pIC50

1. Cc1noc(C)c1N(C)c1ccc2c(c1)CCC[C@H]2CNc1cnccc1C(=O)O : < 5.00
2. CN(c1ccc2c(c1)CCC[C@H]2CNc1cnccc1C(=O)O)c1cccs1 : ≥ 7.00
3. C[C@@H](O)c1ccc(N(C)c2ccc3c(c2)CCC[C@H]3CNc2cnccc2C(=O)O)cc1 (single isomer, unassigned) : ≥ 7.00
4. CN(c1ccc(C2=CCOCC2)cc1)c1ccc2c(c1)CCC[C@H]2CNc1cnccc1C(=O)O : ≥ 7.00
5. CN(c1ccc(Cl)cc1)c1ccc2c(c1)OCC[C@H]2CNc1cnccc1C(=O)O : ≥ 7.00
6. CCCOc1ccc2c(c1)CCCC2CNc1cnccc1C(=O)O (centres unmarked) : 5.00 to 6.00
7. CC(C)Oc1ccc(N(C)c2ccc3c(c2)OCC[C@H]3CNc2cnccc2C(=O)O)cc1 : ≥ 7.00
8. CN(c1ccc(N2CCC2)cc1)c1ccc2c(c1)OCC[C@H]2CNc1cnccc1C(=O)O : ≥ 7.00

If you can, please state the reported pIC50 value of `CCc1ccc2c(c1)CCC[C@H]2CNc1cnccc1C(=O)O` .
5.00 to 6.00

Try this molecule next: O=C(O)c1ccncc1NCC1CCOc2cc(N3CCc4ccccc43)ccc21 (centres unmarked)
6.00 to 7.00

Request: CC(C)C#Cc1ccc2c(c1)OCCC2CNc1cnccc1C(=O)O (centres unmarked)
< 5.00

Then O=C(O)c1ccncc1NCC1CCCc2c1ccc1c2OCC1 (centres unmarked) ?
5.00 to 6.00
